# Test system: Alopecurus myosuroides
# experimental-protocol: Post-emergence herbicidal evaluation, ALOMY
# condition-notes: 0.200 kg/ha, three weeks after treatment
reported-metric: phytotoxicity rating ALOMY

**Query** Looking for the measured phytotoxicity rating ALOMY of CCN(C(=O)COc1nc2ccccc2o1)C1=CC(C)(C)CC(C)=C1 , can you help?
**Result** 4 (4 - Injury)

**Query** Looking for the measured phytotoxicity rating ALOMY of CCN(C(=O)COc1nnc(C(F)(F)F)s1)C1=CC(C)(C)CC(C)=C1 , can you help?
**Result** 6 (6 - Herbicidal effect)

**Query** Looking for the measured phytotoxicity rating ALOMY of CC1=CC(N(C(=O)COc2nnc(C(F)(F)F)s2)C(C)C)=CC(C)(C)C1 , can you help?
**Result** 8 (8 - Approaching complete kill)

**Query** Looking for the measured phytotoxicity rating ALOMY of CC1=CC(N(C)C(=O)COc2nnc(C(F)(F)C(F)(F)F)s2)=CC(C)(C)C1 , can you help?
**Result** 0 (0 - No effect)

**Query** Looking for the measured phytotoxicity rating ALOMY of CCc1nnc(OCC(=O)N(C2=CC(C)(C)CC(C)=C2)C(C)C)s1 , can you help?
**Result** 7 (7 - Good herbicidal effect)
